B1: TPR 5TU (parent)
chain: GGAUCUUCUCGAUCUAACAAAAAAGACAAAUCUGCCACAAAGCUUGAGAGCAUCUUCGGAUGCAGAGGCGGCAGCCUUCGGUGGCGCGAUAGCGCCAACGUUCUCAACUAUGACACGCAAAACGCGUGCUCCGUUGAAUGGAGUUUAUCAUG

Variants of: B1
Experiment: polymerase ribozyme fitness, log enrichment relative to wild type (log ratio); higher = more active; in vitro selection for triplet polymerase activity
This sample holds only a part of the variants without activity.
// values below are reported polymerase ribozyme fitness (log ratio)
Assay readout: polymerase ribozyme fitness (log ratio)

>>> print(df.to_string())
                       mutation_descriptor  limit_qualifier  endpoint_result
 0  C10A G59A A91U U111A U127C A138U A150G                ≤             -4.2
 1                               A22U C63U                =            0.542
 2                               A17G G71A                =            -3.06
 3                        C95U U139G U148A                =            -3.14
 4               A37C U45A C79U A97U U144A                ≤             -4.2
 5                          U13A U45A G84A                ≤             -4.2
 6             G58A C87G C116A A147C U151A                ≤             -4.2
 7     C14G A24U A30U U44A C54A C87U G112U                =            -4.11
 8                     A41C A49C C75A C95A                ≤             -4.2
 9        C32U G50U C95A C131U G143A U151C                ≤             -4.2
10                         G50U C95A C125G                =           -0.894
11               U44A U55A C69G G86U G141A                =             -4.2
12          C18U A28U C38A A47C C85A U145C                ≤             -4.2
13                                C8U G94A                =            -3.24
14                               C10G A89G                ≤             -4.2
15                                    G25C                =            -2.52
16                               U15A A20U                =           -0.122
17                               U55G G59A                =            -2.25
18          U7C C27G C57G G88C G124A U134G                ≤             -4.2
19         U7C U45G G83C G128U C132G A147C                ≤             -4.2
20                               A52C G88A                =            -3.57
21                         A21C G59A A113G                =            -1.92
